assay: Volume of distribution at steady state in rat at 0.1 mg/kg, iv by LC/MS/MS analysis; format: ADME, organism-based; conditions: in vivo, read-out: Vdss
Measure: Vd (L/kg)

INSERT INTO measurements (smiles_record, experimental_result) VALUES
  ('CC(C)c1noc(N2CCC(Oc3cc(N4CCc5cc(N6CCC[C@H](O)C6=O)ccc54)ncn3)CC2)n1', 0.332);

* * *

target: Glucose-dependent insulinotropic receptor (Homo sapiens, UniProt Q8TDV5); test: Agonist activity at human GPR119 expressed in CHO cells co-expressing cyclic AMP response element incubated for 2 hrs by steady-glo luciferase assay
Sequence (Q8TDV5 whole entry): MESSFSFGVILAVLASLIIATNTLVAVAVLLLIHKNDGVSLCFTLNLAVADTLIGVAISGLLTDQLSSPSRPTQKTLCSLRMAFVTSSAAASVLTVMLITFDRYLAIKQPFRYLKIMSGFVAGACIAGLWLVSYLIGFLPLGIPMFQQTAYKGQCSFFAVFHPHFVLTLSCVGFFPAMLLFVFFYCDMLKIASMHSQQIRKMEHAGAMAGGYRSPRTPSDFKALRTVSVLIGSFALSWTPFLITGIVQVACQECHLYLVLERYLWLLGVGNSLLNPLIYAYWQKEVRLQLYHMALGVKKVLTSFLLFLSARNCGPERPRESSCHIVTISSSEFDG
Measure: EC50 (nM)

INSERT INTO measurements (compound, assayed_target, value_units, censor_symbol, experimental_result) VALUES
  ('CC(C)c1noc(N2CCC(Oc3cc(N4CCc5cc(S(=O)(=O)CCO)ccc54)ncn3)CC2)n1', 'Glucose-dependent insulinotropic receptor (Homo sapiens, UniProt Q8TDV5)', 'nM', '=', 41),
  ('CC(C)c1noc(N2CCC(Oc3cc(N4CCc5cc(N6CCCS6(=O)=O)ccc54)ncn3)CC2)n1', 'Glucose-dependent insulinotropic receptor (Homo sapiens, UniProt Q8TDV5)', 'nM', '=', 9.7),
  ('CC(C)c1noc(N2CCC(Oc3cc(N4CCc5cc([S+]([O-])CCO)ccc54)ncn3)CC2)n1 (racemic)', 'Glucose-dependent insulinotropic receptor (Homo sapiens, UniProt Q8TDV5)', 'nM', '=', 48),
  ('CC(C)c1noc(N2CCC(Oc3cc(N4CCc5cc(N6CCOCC6=O)ccc54)ncn3)CC2)n1', 'Glucose-dependent insulinotropic receptor (Homo sapiens, UniProt Q8TDV5)', 'nM', '=', 15),
  ('CC(C)SC(=O)N1CCC(Oc2cc(N3CCc4cc(S(C)(=O)=O)ccc43)ncn2)CC1', 'Glucose-dependent insulinotropic receptor (Homo sapiens, UniProt Q8TDV5)', 'nM', '=', 3.2),
  ('CC(C)c1noc(N2CCC(Oc3cc(N4CCc5cc(N6CCCNS6(=O)=O)ccc54)ncn3)CC2)n1', 'Glucose-dependent insulinotropic receptor (Homo sapiens, UniProt Q8TDV5)', 'nM', '=', 24),
  ('CC(C)SC(=O)N1CCC(Oc2cc(N3CCc4cc([S+]([O-])CCO)ccc43)ncn2)CC1 (racemic)', 'Glucose-dependent insulinotropic receptor (Homo sapiens, UniProt Q8TDV5)', 'nM', '=', 14),
  ('CC(C)c1noc(N2CCC(Oc3cc(N4CCc5cc(N6CCC[C@@H](O)C6=O)ccc54)ncn3)CC2)n1', 'Glucose-dependent insulinotropic receptor (Homo sapiens, UniProt Q8TDV5)', 'nM', '=', 25),
  ('CC(=O)N(C)c1ccc2c(c1)CCN2c1cc(OC2CCN(c3nc(C(C)C)no3)CC2)ncn1', 'Glucose-dependent insulinotropic receptor (Homo sapiens, UniProt Q8TDV5)', 'nM', '=', 75),
  ('CC(C)c1noc(N2CCC(Oc3cc(N4CCc5cc(N6CCCC6=O)ccc54)ncn3)CC2)n1', 'Glucose-dependent insulinotropic receptor (Homo sapiens, UniProt Q8TDV5)', 'nM', '=', 33),
  ('CC(C)c1noc(N2CCC(Oc3cc(N4CCc5cc(N6CCNCC6=O)ccc54)ncn3)CC2)n1', 'Glucose-dependent insulinotropic receptor (Homo sapiens, UniProt Q8TDV5)', 'nM', '=', 36),
  ('CC(C)c1noc(N2CCC(Oc3cc(N4CCc5cc(N6CCCC(O)C6=O)ccc54)ncn3)CC2)n1 (racemic)', 'Glucose-dependent insulinotropic receptor (Homo sapiens, UniProt Q8TDV5)', 'nM', '=', 17),
  ('CC(C)c1noc(N2CCC(Oc3cc(N4CCc5cc(N6CC(O)CCC6=O)ccc54)ncn3)CC2)n1 (racemic)', 'Glucose-dependent insulinotropic receptor (Homo sapiens, UniProt Q8TDV5)', 'nM', '=', 90),
  ('CC(C)c1noc(N2CCC(Oc3cc(N4CCc5cc(C6CCCCC6=O)ccc54)ncn3)CC2)n1 (racemic)', 'Glucose-dependent insulinotropic receptor (Homo sapiens, UniProt Q8TDV5)', 'nM', '=', 48),
  ('CC(C)c1noc(N2CCC(Oc3cc(N4CCc5cc(N6CCC[C@H](O)C6=O)ccc54)ncn3)CC2)n1', 'Glucose-dependent insulinotropic receptor (Homo sapiens, UniProt Q8TDV5)', 'nM', '=', 16),
  ('CC(C)c1noc(N2CCC(Oc3cc(N4CCc5cc(N6CCCCC6=O)ccc54)ncn3)CC2)n1', 'Glucose-dependent insulinotropic receptor (Homo sapiens, UniProt Q8TDV5)', 'nM', '=', 17),
  ('CC(C)SC(=O)N1CCC(Oc2cc(N3CCc4cc([S+]([O-])CCO)ccc43)ncn2)CC1 (stereo in doubt; form 1)', 'Glucose-dependent insulinotropic receptor (Homo sapiens, UniProt Q8TDV5)', 'nM', '=', 57),
  ('CC(C)c1noc(N2CCC(Oc3cc(N4CCc5cc(N6CCC(O)CC6=O)ccc54)ncn3)CC2)n1 (racemic)', 'Glucose-dependent insulinotropic receptor (Homo sapiens, UniProt Q8TDV5)', 'nM', '=', 89),
  ('CC(C)SC(=O)N1CCC(Oc2cc(N3CCc4ccccc43)ncn2)CC1', 'Glucose-dependent insulinotropic receptor (Homo sapiens, UniProt Q8TDV5)', 'nM', '>', 10000),
  ('CC(C)SC(=O)N1CCC(Oc2cc(N3CCc4cc([S+]([O-])CCO)ccc43)ncn2)CC1 (stereo in doubt; form 2)', 'Glucose-dependent insulinotropic receptor (Homo sapiens, UniProt Q8TDV5)', 'nM', '=', 9.7);
